Recorded values, source paper PMC9687798.

Known Km of a selection of molecules
- TEST_SYSTEM: UniProt O15245
- TEST: Concentration-dependent uptake (transport kinetics) in HEK293 cells overexpressing OCT1 wild-type
- MEASUREMENT_PARAMETERS: human, HEK293 cells stably overexpressing human OCT1*1 (wild-type), pH 7.4, KM (±SEM), net uptake (OCT1 minus empty vector), HEK293, 0.1-1000 µM substrate, Michaelis–Menten

| STRUCTURE | VALUE_UNITS | Km |
| --- | --- | --- |
| CCCCC[C@H](O)/C=C/[C@@H]1[C@@H](C/C=C\CCCC(=O)O)[C@@H](O)C[C@H]1O | µM | 719 |
| CNC(=C[N+](=O)[O-])NCCSCc1ccc(CN(C)C)o1 | µM | 54.5 |
